Assay: blockers of DNA damage checkpoint Chk1 activation – imaging, HeLa, hydroxyurea, phospho-Chk1 antibody, percent positive cells, primary screen (AID 1186)
Settings: hydroxyurea-induced phospho-Chk1 immunofluorescence imaging, higher = more signal
endpoint.name: z-score
Simply state the number, no unit and no words.

Exam item: Using the record for CCCCC(CC)C(O)C1C=CC2C(=O)N(c3ccccc3)C(=O)C2N1Nc1ccc(C#N)cc1 (stereo not given) , state its measured z-score.
Marked response: -0.185

Exam item: Name the recorded z-score of the item COCCCNC(=O)[C@@]1(Sc2ccc(C)cc2)CC(=O)N(C2Cc3ccccc3C2)[C@@H]1c1ccc(CO)cc1 in your answer.
Marked response: -0.0691

Exam item: Quickly give me recorded z-score for COC(=O)[C@@]1(Cc2ccc(OC)cc2)[C@H]2c3cc(C(=O)N4CCCC4)n(CCc4c[nH]c5ccc(O)cc45)c3C[C@H]2CN1C(=O)c1ccccc1
Marked response: 0.336

Exam item: For the molecule Cc1ccc(NN2C(C(O)c3c(F)cccc3Cl)C=CC3C(=O)N(C4CCCCC4)C(=O)C32)cc1 (stereo not given) , report z-score.
Marked response: -0.0771

Exam item: Annotate the molecule COC(=O)C1(CC(C)C)C=C2C(=C(c3ccccc3)C(=O)C2C)CN1 (stereo not given) with its measured z-score.
Marked response: -0.563
